# measurement_target: Epidermal growth factor receptor (Homo sapiens, UniProt P00533)
# Sequence (P00533 whole entry): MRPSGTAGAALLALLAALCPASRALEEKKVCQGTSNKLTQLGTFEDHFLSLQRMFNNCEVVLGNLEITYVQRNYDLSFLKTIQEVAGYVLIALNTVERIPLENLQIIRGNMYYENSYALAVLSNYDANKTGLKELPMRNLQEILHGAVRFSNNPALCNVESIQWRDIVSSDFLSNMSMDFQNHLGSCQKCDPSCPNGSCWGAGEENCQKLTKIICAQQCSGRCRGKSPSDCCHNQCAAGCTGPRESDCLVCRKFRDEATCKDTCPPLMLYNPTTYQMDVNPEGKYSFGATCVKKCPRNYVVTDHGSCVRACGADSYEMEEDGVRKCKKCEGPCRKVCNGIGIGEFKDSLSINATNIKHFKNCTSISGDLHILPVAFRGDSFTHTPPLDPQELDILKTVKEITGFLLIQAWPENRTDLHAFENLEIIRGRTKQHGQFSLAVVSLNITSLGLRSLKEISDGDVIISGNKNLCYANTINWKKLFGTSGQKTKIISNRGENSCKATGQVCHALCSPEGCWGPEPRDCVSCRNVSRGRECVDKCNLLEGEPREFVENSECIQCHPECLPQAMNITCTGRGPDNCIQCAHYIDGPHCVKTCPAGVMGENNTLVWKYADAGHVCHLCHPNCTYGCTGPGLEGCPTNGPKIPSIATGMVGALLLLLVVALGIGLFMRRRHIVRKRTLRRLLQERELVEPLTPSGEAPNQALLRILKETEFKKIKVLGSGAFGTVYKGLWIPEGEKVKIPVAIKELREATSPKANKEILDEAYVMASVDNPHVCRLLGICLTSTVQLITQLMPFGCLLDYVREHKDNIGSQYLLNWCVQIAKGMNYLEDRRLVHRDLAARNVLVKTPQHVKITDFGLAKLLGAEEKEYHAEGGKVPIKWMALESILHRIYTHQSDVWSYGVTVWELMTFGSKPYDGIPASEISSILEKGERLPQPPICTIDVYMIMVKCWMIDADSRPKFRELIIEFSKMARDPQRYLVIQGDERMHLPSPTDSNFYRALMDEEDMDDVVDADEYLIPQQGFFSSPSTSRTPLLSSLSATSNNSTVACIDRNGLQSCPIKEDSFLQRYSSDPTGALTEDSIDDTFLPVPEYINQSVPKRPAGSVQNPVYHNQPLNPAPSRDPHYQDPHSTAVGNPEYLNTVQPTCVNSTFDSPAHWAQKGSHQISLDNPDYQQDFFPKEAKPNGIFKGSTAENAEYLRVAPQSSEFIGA
# assay_overview: Inhibition of recombinant EGFR (unknown origin) after 10 mins by DELFIA/time-resolved fluorometry
property: IC50 (nM)

As a guide, the following entries are already answered.
>  <item_smiles>
Cc1ccc(NC(=O)/C=C/CN(C)C)cc1C(=O)Nc1nccc(-c2cccnc2)n1

>  <measurement_target>
Epidermal growth factor receptor (Homo sapiens, UniProt P00533)

>  <experimental_value>
5000

$$$$
>  <item_smiles>
CCOc1cc([N+](=O)[O-])c(C(=O)Nc2ccc(F)c(Cl)c2)cc1NC(=O)c1ccc(CN2CCN(C)CC2)cc1

>  <measurement_target>
Epidermal growth factor receptor (Homo sapiens, UniProt P00533)

>  <experimental_value>
5000

$$$$
>  <item_smiles>
CN(C)C/C=C/C(=O)Nc1ccc(-c2cncc(C#N)c2Nc2ccc(OCc3cccc(F)c3)c(Cl)c2)cc1

>  <measurement_target>
Epidermal growth factor receptor (Homo sapiens, UniProt P00533)

>  <experimental_value>
660

$$$$
>  <item_smiles>
Cc1ccc(NC(=O)c2ccc(CN3CCN(C)CC3)cc2)cc1C(=O)Nc1nccc(-c2cccc(F)c2)n1

>  <measurement_target>
Epidermal growth factor receptor (Homo sapiens, UniProt P00533)

>  <experimental_value>
6000

$$$$
>  <item_smiles>
CCOc1cc(N)c(C(=O)Nc2ccc(OCc3ccccn3)c(Cl)c2)cc1NC(=O)/C=C/CN(C)C

>  <measurement_target>
Epidermal growth factor receptor (Homo sapiens, UniProt P00533)

>  <experimental_value>
800

$$$$

I. CCOc1ccc(C(=O)Nc2nccc(-c3cccnc3)n2)cc1NC(=O)/C=C/CN(C)C
II. CCOc1cc(N)c(C(=O)Nc2ccc(F)c(Cl)c2)cc1NC(=O)c1ccc(CN2CCN(C)CC2)cc1
III. CN1CCN(Cc2ccc(C(=O)Nc3ccc(-c4cncc(C#N)c4Nc4ccc(OCc5ccccn5)c(Cl)c4)cc3)cc2)CC1
IV. Cc1ccc(NC(=O)/C=C/CN(C)C)cc1C(=O)Nc1ccc(OCc2cccc(F)c2)c(Cl)c1
V. Cc1ncc(C#N)c(Nc2ccc(OCc3ccccn3)c(Cl)c2)c1C#Cc1ccc(CNCCS(C)(=O)=O)o1
Exam item: Hey, quick one: sort these by IC50, largest value first please. Answer format: the labels, in the requested order.
Marked response: I, III, V, II, IV
